experiment: qHTS assay for re-activators of p53 using a Luc reporter: Hit Validation; settings: p53-responsive luciferase reporter cells, luminescence, H1299 line expressing heat-sensitive Ala138Val p53; series mostly up to 46.1 µM; also: nearly all actives have a fitted effect of over 75% in size; as to activation: 0% is about no effect
Results filed as inconclusive are left out. Calls of active or inactive are those of the source. Calls follow the shape of the dose curve; as a rule, active = well fitted activation curve with a large enough effect; inconclusive = small, poorly fitted or top-dose-only effect; inactive = no such curve, though single readings can be large or run the other way.
Outcomes: 1 (active), -1 (inactive)

compound: O=C(/C=C/c1cnc2ccccc2n1)NC12CC3CC(CC(C3)C1)C2
class-assignment: 1

compound: Cc1ccc(C(=O)c2cc([N+](=O)[O-])ccc2N2CCCCC2)cc1C
class-assignment: -1

compound: CCc1cc(C(=O)c2ccc(C)cc2)c(NC(=O)CCl)s1
class-assignment: -1

compound: Cc1ccc(-c2nnc(SCc3ccccc3F)o2)cc1
class-assignment: 1

compound: Cc1cccc(NC(=O)c2oc3c(c2C)C(=O)CC(C)(C)C3)n1
class-assignment: -1

compound: CN(C)c1cccc(C(=O)NNC(=O)CN2C(=O)C3CC=CCC3C2=O)c1 (centres undefined)
class-assignment: 1

compound: CC(=O)N1CCC(C(=O)Nc2ccc(S(=O)(=O)NCCc3ccccc3)cc2)CC1
class-assignment: -1

compound: Cn1ncc([N+](=O)[O-])c1C(=O)Nc1ccc(C2CCCCC2)cc1
class-assignment: -1

compound: Cc1ccc(OC(=O)c2cccc(S(=O)(=O)N3CCCC3)c2)c(-n2nc3ccccc3n2)c1
class-assignment: 1

compound: Cc1ccc(/C=C(\C#N)C(=O)NCC2CCCO2)o1 (centres undefined)
class-assignment: -1

compound: COc1ccccc1NC(CC(=O)c1ccccc1)C(=O)OCC(=O)c1ccc(F)cc1 (centres undefined)
class-assignment: 1

compound: CCOc1ccc(OCc2cccc(C(=O)N3CCCC3)c2)cc1
class-assignment: 1

compound: ON=C1c2cc(OCCN3CCCCC3)ccc2-c2ccc(OCCN3CCCCC3)cc21
class-assignment: -1

compound: COc1ccc(-c2nsc3c(N4CCCC4)ncnc23)cc1
class-assignment: 1

compound: CCOC(=O)c1ccc2ncc(C(=O)OCC)c(NCc3ccco3)c2c1
class-assignment: -1

compound: COc1ccccc1OCCn1nnc2ccccc21
class-assignment: -1

compound: O=C(N/N=C\c1cc(Cl)ccc1O)c1ccc(S(=O)(=O)N2CCCCC2)cc1
class-assignment: -1

compound: CC(=O)N(C)c1ccc(NC(=O)CCN2C(=O)c3ccccc3C2=O)cc1
class-assignment: -1

compound: O=c1c2ccccc2oc2ccc(-c3ccc4cc[nH]c4c3)cc12
class-assignment: 1

compound: O=C(NCCN1CCOCC1)c1cc(-c2cccs2)on1
class-assignment: 1

compound: CCC(=O)Nc1ccc2oc(-c3cccc(C)c3)nc2c1
class-assignment: 1

compound: Cc1ccc2nc(-c3ccc(NC(=O)COC(=O)c4cncc(Br)c4)cc3)sc2c1
class-assignment: 1

compound: O=C(/C(=N/N=C/c1ccc(O)c(O)c1)c1ccccc1)c1ccccc1
class-assignment: -1

compound: C/C(=N/NC(=O)c1ccc2c(c1)OCO2)c1ccc(NC(=O)C(F)(F)F)cc1
class-assignment: 1

compound: COc1cc(NC(=O)CN2C(=O)COc3ccc(S(=O)(=O)N4CCCC4)cc32)cc(OC)c1
class-assignment: -1

compound: Cc1ccnc(NC(=O)c2sc3cc(Cl)ccc3c2Cl)c1
class-assignment: 1

compound: C/C(Cn1nnc([N+](=O)[O-])n1)=N\NC(=O)c1ccc(C)cc1
class-assignment: -1

compound: CC(/C=N/Nc1nc2ccccc2[nH]1)=C\c1ccccc1
class-assignment: 1

compound: Cc1ccc2cc(C#N)c(NCc3ccco3)nc2c1
class-assignment: -1
